Test system: Amaranthus retroflexus
Experiment: Pre-emergence herbicidal action against AMARE
Format: in vivo
Details: 20 g/ha; visual score after 3 weeks vs untreated controls
property name: Pre-emergence action against AMARE (%)
One number for each entry, in %.

molecule	test target	property name	units symbol	measured number
CCN(CC)C(=O)c1c(C(F)(F)F)ccc(C(=O)Nc2nnnn2C)c1Cl [Example 1-135]	Amaranthus retroflexus	Pre-emergence action against AMARE	%	100
CCN(C)C(=O)c1c(C(F)(F)F)ccc(C(=O)Nc2nnnn2C)c1C [Example 1-20]	Amaranthus retroflexus	Pre-emergence action against AMARE	%	80
CCN(C(=O)c1c(C(F)F)ccc(C(=O)Nc2nnnn2CC)c1Cl)C1CC1 [Example 2-167]	Amaranthus retroflexus	Pre-emergence action against AMARE	%	100
CCN(C)C(=O)c1c(C(F)F)ccc(C(=O)Nc2nnnn2C)c1C [Example 1-51]	Amaranthus retroflexus	Pre-emergence action against AMARE	%	80
CCN(CC)C(=O)c1c(C(F)(F)F)ccc(C(=O)Nc2nnnn2CC)c1Cl [Example 2-135]	Amaranthus retroflexus	Pre-emergence action against AMARE	%	100
CN(CC(F)F)C(=O)c1c(C(F)(F)F)ccc(C(=O)Nc2nnnn2C)c1Cl [Example 1-128]	Amaranthus retroflexus	Pre-emergence action against AMARE	%	100
CCN(C(=O)c1c(C(F)(F)F)ccc(C(=O)Nc2nnnn2CC)c1C)C1CC1 [Example 2-32]	Amaranthus retroflexus	Pre-emergence action against AMARE	%	100
CCN(C)C(=O)c1c(Br)ccc(C(=O)Nc2nnnn2C)c1Cl [Example 1-192]	Amaranthus retroflexus	Pre-emergence action against AMARE	%	80

For each entry beneath this line, provide reported Pre-emergence action against AMARE.
1. CN(C(=O)c1c(Cl)ccc(C(=O)Nc2nnnn2C)c1Cl)c1ccccc1 [Example 1-398]
2. CCCn1nnnc1NC(=O)c1ccc(C(F)(F)F)c(C(=O)N(C)CC2CC2)c1Cl [Example 3-126]
3. CCN(C(=O)c1c(C(F)F)ccc(C(=O)Nc2nnnn2C)c1Cl)C1CC1 [Example 1-167]
4. CCn1nnnc1NC(=O)c1ccc(C(F)(F)F)c(C(=O)N(C)CC(F)F)c1Cl [Example 2-128]
5. CCN(C)C(=O)c1c(Br)ccc(C(=O)Nc2nnnn2CC)c1Cl [Example 2-192]
6. CCn1nnnc1NC(=O)c1ccc(C(F)(F)F)c(C(=O)N(C)C2CC2)c1Cl [Example 2-125]
7. CN(C)C(=O)c1c(C(F)F)ccc(C(=O)Nc2nnnn2C)c1Cl [Example 1-154]

Ans.
[90, 90, 100, 100, 100, 100, 90]
